# system.under.test: UniProtKB Q9HBH9
# Sequence (Q9HBH9 whole entry): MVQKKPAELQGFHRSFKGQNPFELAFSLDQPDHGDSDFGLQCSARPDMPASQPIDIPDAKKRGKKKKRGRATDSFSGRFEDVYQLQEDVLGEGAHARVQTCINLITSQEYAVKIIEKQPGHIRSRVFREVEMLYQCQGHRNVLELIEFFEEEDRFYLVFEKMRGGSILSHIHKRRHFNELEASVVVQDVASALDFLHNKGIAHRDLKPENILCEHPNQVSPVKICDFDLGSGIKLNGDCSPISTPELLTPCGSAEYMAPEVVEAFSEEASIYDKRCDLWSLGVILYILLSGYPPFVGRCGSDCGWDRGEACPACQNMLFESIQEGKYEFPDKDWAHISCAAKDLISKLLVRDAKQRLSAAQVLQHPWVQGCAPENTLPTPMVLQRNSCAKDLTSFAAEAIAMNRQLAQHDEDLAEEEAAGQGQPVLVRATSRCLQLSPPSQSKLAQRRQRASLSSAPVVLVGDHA
# method.description: MNK2 substrate phosphorylation assay
# run.conditions: recombinant human kinase
pIC50: −log10 of the molar value.
observed.property: pIC50

[[record]]
molecule = "Cc1cc(Nc2cc(NC(=O)C3CC3)ncn2)c(=O)n2c1C(=O)NC2(C)c1cccc(Cl)c1 (stereo not drawn) [Compound 4ET-03-035]"
observed_property = "pIC50"
data_value = 8.37

[[record]]
molecule = "Cc1cc(Nc2cc(NCCO)ncn2)c(=O)n2c1C(=O)NC21CCOCC1 [Compound 4ET-03-011]"
observed_property = "pIC50"
data_value = 7.56

[[record]]
molecule = "Cc1cc(Nc2cc(NCCN3CCOCC3)ncn2)c(=O)n2c1C(=O)NC21CCOCC1 [Compound 4ET-03-010]"
observed_property = "pIC50"
data_value = 7.07


---

# method.description: Pharmacokinetic study, 4ET-03-009 at 10 mg/kg oral
# Type: in vivo, CD-1 male mice
# run.conditions: male, CD-1, mouse, plasma, oral, 10 mg/kg, 1 hours, read-out: Plasma Conc. (per mouse n = 3)
observed.property: concentration at 1 h (µg/mL)

[[record]]
compound = "Cc1cc(Nc2cc(NC(=O)C3CC3)ncn2)c(=O)n2c1C(=O)NC21CCOCC1 [Compound 4ET-03-009]"
observed_property = "concentration at 1 h"
data_value = 0.331


---

# method.description: Pharmacokinetic study, 4ET-03-009 at 20 mg/kg oral
# Assay type: in vivo, CD-1 male mice
# run.conditions: male, CD-1, mouse, plasma, oral, 20 mg/kg, 1 hours, mean n = 3, read-out: Plasma Conc. Mean
observed.property: concentration at 1 hours (ng/mL)

[[record]]
molecule = "Cc1cc(Nc2cc(NC(=O)C3CC3)ncn2)c(=O)n2c1C(=O)NC21CCOCC1 [Compound 4ET-03-009]"
data_value = 553


---

# Test system: MDCK-MDR1
# method.description: MDCK-MDR1 permeability (blood brain barrier permeability)
# Type: in vitro ADME, Canine
# run.conditions: Basolateral to apical transport, 5 μM, average of two experiments
Label y when Papp B-A is at or above 50 ×10⁻⁶ cm/s; anything below gets n.

[[record]]
compound = "Cc1cc(Nc2cc(N)ncn2)c(=O)n2c1C(=O)NC21C[C@H]2COC[C@H]2C1 (single isomer, unassigned) [Compound 4ET-01-014B]"
system_under_test = "MDCK-MDR1"
category = "n"

[[record]]
compound = "Cc1cc(Nc2cc(NC(=O)C3CC3)ncn2)c(=O)n2c1C(=O)NC21C[C@H]2CNC[C@H]2C1 (single isomer, unassigned) [Compound 4ET-03-050B]"
system_under_test = "MDCK-MDR1"
category = "n"

[[record]]
compound = "Cc1cc(Nc2cc(NC(=O)C3CC3)ncn2)c(=O)n2c1C(=O)NC21Cc2ccccc2[C@@H]1F (single isomer, unassigned) [Compound 4ET-03-052B]"
system_under_test = "MDCK-MDR1"
category = "y"

[[record]]
compound = "Cc1cc(Nc2cc(N)ncn2)c(=O)n2c1C(=O)NC21C[C@H]2COC[C@H]2C1 (single isomer, unassigned) [Compound 4ET-01-014A]"
system_under_test = "MDCK-MDR1"
category = "n"

[[record]]
compound = "Cc1cc(Nc2cc(NC(=O)C3CC3)ncn2)c(=O)n2c1C(=O)NC21C[C@H]2CNC[C@H]2C1 (single isomer, unassigned) [Compound 4ET-03-050A]"
system_under_test = "MDCK-MDR1"
category = "n"

